Measured self-cleavage kobs at 10000 uM GlcN6P accompanies every entry in the list below.
B1: glmS ribozyme (parent)
chain: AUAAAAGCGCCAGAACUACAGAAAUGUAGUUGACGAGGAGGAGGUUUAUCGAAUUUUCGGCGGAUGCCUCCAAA

# Variants of: B1
# Test protocol: self-cleavage kobs at 10000 uM GlcN6P; higher = faster cleavage; RNA array
# Test context: with glucosamine-6-phosphate
Variants at the floor of the assay were thinned out.

{"Mutation descriptor": "G38A G43U C67U", "Reading qualifier": "<", "self-cleavage kobs at 10000 uM GlcN6P [s⁻¹]": "1e-05"}
{"Mutation descriptor": "A6C A64U", "Reading qualifier": "<", "self-cleavage kobs at 10000 uM GlcN6P [s⁻¹]": "1e-05"}
{"Mutation descriptor": "G29C G41C C68G", "Reading qualifier": "<", "self-cleavage kobs at 10000 uM GlcN6P [s⁻¹]": "1e-05"}
{"Mutation descriptor": "C16U A48U G62U", "Reading qualifier": "<", "self-cleavage kobs at 10000 uM GlcN6P [s⁻¹]": "1e-05"}
{"Mutation descriptor": "G13U G35A U57A U65G", "Reading qualifier": "<", "self-cleavage kobs at 10000 uM GlcN6P [s⁻¹]": "1e-05"}
{"Mutation descriptor": "C34A C68U", "Reading qualifier": "<", "self-cleavage kobs at 10000 uM GlcN6P [s⁻¹]": "1e-05"}
{"Mutation descriptor": "C10U C50A", "Reading qualifier": "<", "self-cleavage kobs at 10000 uM GlcN6P [s⁻¹]": "1e-05"}
{"Mutation descriptor": "C11A U46A", "Reading qualifier": "<", "self-cleavage kobs at 10000 uM GlcN6P [s⁻¹]": "1e-05"}
{"Mutation descriptor": "G38C A42C", "Reading qualifier": "<", "self-cleavage kobs at 10000 uM GlcN6P [s⁻¹]": "1e-05"}
{"Mutation descriptor": "C11G G60U U69G", "Reading qualifier": "<", "self-cleavage kobs at 10000 uM GlcN6P [s⁻¹]": "1e-05"}
{"Mutation descriptor": "A14G U47A G59U C70U", "Reading qualifier": "=", "self-cleavage kobs at 10000 uM GlcN6P [s⁻¹]": "9.51e-05"}
{"Mutation descriptor": "C10U U31C G66U", "Reading qualifier": "<", "self-cleavage kobs at 10000 uM GlcN6P [s⁻¹]": "1e-05"}
{"Mutation descriptor": "U31A U65G", "Reading qualifier": "=", "self-cleavage kobs at 10000 uM GlcN6P [s⁻¹]": 0.00205}
{"Mutation descriptor": "A6U C8G A33U C34G U69G", "Reading qualifier": "=", "self-cleavage kobs at 10000 uM GlcN6P [s⁻¹]": "6.82e-05"}
{"Mutation descriptor": "G41A U56C", "Reading qualifier": "=", "self-cleavage kobs at 10000 uM GlcN6P [s⁻¹]": "3.52e-05"}
{"Mutation descriptor": "A6G A53U", "Reading qualifier": "=", "self-cleavage kobs at 10000 uM GlcN6P [s⁻¹]": 0.000241}
{"Mutation descriptor": "G9U A15U G41A U55A G60A", "Reading qualifier": "<", "self-cleavage kobs at 10000 uM GlcN6P [s⁻¹]": "1e-05"}
{"Mutation descriptor": "A36C A39G G66A", "Reading qualifier": "<", "self-cleavage kobs at 10000 uM GlcN6P [s⁻¹]": "1e-05"}
{"Mutation descriptor": "U54G U65C", "Reading qualifier": "=", "self-cleavage kobs at 10000 uM GlcN6P [s⁻¹]": 0.00091}
{"Mutation descriptor": "G44U C61G", "Reading qualifier": "<", "self-cleavage kobs at 10000 uM GlcN6P [s⁻¹]": "1e-05"}
{"Mutation descriptor": "U31C G66U", "Reading qualifier": "=", "self-cleavage kobs at 10000 uM GlcN6P [s⁻¹]": 0.000214}
{"Mutation descriptor": "A14G C16G U30G U49C U54A C67G C68U", "Reading qualifier": "<", "self-cleavage kobs at 10000 uM GlcN6P [s⁻¹]": "1e-05"}
{"Mutation descriptor": "C8G U45C", "Reading qualifier": "<", "self-cleavage kobs at 10000 uM GlcN6P [s⁻¹]": "1e-05"}
{"Mutation descriptor": "C34U C71U", "Reading qualifier": "<", "self-cleavage kobs at 10000 uM GlcN6P [s⁻¹]": "1e-05"}
{"Mutation descriptor": "C10A A14C A42C G63A", "Reading qualifier": "<", "self-cleavage kobs at 10000 uM GlcN6P [s⁻¹]": "1e-05"}
{"Mutation descriptor": "A48G C58A", "Reading qualifier": "=", "self-cleavage kobs at 10000 uM GlcN6P [s⁻¹]": "4.59e-05"}
{"Mutation descriptor": "G40U U55C", "Reading qualifier": "=", "self-cleavage kobs at 10000 uM GlcN6P [s⁻¹]": 0.000135}
{"Mutation descriptor": "C34G U54G", "Reading qualifier": "<", "self-cleavage kobs at 10000 uM GlcN6P [s⁻¹]": "1e-05"}
{"Mutation descriptor": "A33C A64C C68U", "Reading qualifier": "<", "self-cleavage kobs at 10000 uM GlcN6P [s⁻¹]": "1e-05"}
{"Mutation descriptor": "G38U C61U U69C C71G", "Reading qualifier": "=", "self-cleavage kobs at 10000 uM GlcN6P [s⁻¹]": "4.2e-05"}
{"Mutation descriptor": "G43C U57A", "Reading qualifier": "<", "self-cleavage kobs at 10000 uM GlcN6P [s⁻¹]": "1e-05"}
{"Mutation descriptor": "C16U U31A", "Reading qualifier": "=", "self-cleavage kobs at 10000 uM GlcN6P [s⁻¹]": 0.0168}
{"Mutation descriptor": "G40U U54A", "Reading qualifier": "=", "self-cleavage kobs at 10000 uM GlcN6P [s⁻¹]": 0.0025}
{"Mutation descriptor": "A33G C61U", "Reading qualifier": "<", "self-cleavage kobs at 10000 uM GlcN6P [s⁻¹]": "1e-05"}
{"Mutation descriptor": "G38U A52C", "Reading qualifier": "<", "self-cleavage kobs at 10000 uM GlcN6P [s⁻¹]": "1e-05"}
{"Mutation descriptor": "U55G U69G", "Reading qualifier": "=", "self-cleavage kobs at 10000 uM GlcN6P [s⁻¹]": "6.23e-05"}
{"Mutation descriptor": "A14U U45G C68U", "Reading qualifier": "=", "self-cleavage kobs at 10000 uM GlcN6P [s⁻¹]": "9.78e-05"}
{"Mutation descriptor": "U46G G66A C70G", "Reading qualifier": "=", "self-cleavage kobs at 10000 uM GlcN6P [s⁻¹]": 0.000907}
{"Mutation descriptor": "A6G G13C", "Reading qualifier": "<", "self-cleavage kobs at 10000 uM GlcN6P [s⁻¹]": "1e-05"}
{"Mutation descriptor": "C11A A39U", "Reading qualifier": "=", "self-cleavage kobs at 10000 uM GlcN6P [s⁻¹]": "9.43e-05"}
{"Mutation descriptor": "U31G C71U", "Reading qualifier": "=", "self-cleavage kobs at 10000 uM GlcN6P [s⁻¹]": 0.0107}
{"Mutation descriptor": "G13C U49G G59U", "Reading qualifier": "<", "self-cleavage kobs at 10000 uM GlcN6P [s⁻¹]": "1e-05"}
{"Mutation descriptor": "U57G C70G", "Reading qualifier": "=", "self-cleavage kobs at 10000 uM GlcN6P [s⁻¹]": "2.33e-05"}
{"Mutation descriptor": "A6U C10U G44A C50U", "Reading qualifier": "<", "self-cleavage kobs at 10000 uM GlcN6P [s⁻¹]": "1e-05"}
{"Mutation descriptor": "U31A A53U", "Reading qualifier": "=", "self-cleavage kobs at 10000 uM GlcN6P [s⁻¹]": 0.0181}
{"Mutation descriptor": "U30G G37A", "Reading qualifier": "=", "self-cleavage kobs at 10000 uM GlcN6P [s⁻¹]": 0.000734}
{"Mutation descriptor": "C11A C16G U54A C68A", "Reading qualifier": "=", "self-cleavage kobs at 10000 uM GlcN6P [s⁻¹]": "5.11e-05"}
{"Mutation descriptor": "G37C A64C C68U", "Reading qualifier": "<", "self-cleavage kobs at 10000 uM GlcN6P [s⁻¹]": "1e-05"}
{"Mutation descriptor": "A15C C71G", "Reading qualifier": "=", "self-cleavage kobs at 10000 uM GlcN6P [s⁻¹]": 0.00025}
{"Mutation descriptor": "G7U A14G", "Reading qualifier": "<", "self-cleavage kobs at 10000 uM GlcN6P [s⁻¹]": "1e-05"}
{"Mutation descriptor": "G13A U47A G60U", "Reading qualifier": "<", "self-cleavage kobs at 10000 uM GlcN6P [s⁻¹]": "1e-05"}
{"Mutation descriptor": "G41U A64G", "Reading qualifier": "=", "self-cleavage kobs at 10000 uM GlcN6P [s⁻¹]": 0.000621}
{"Mutation descriptor": "G32A A33U C68G C71G", "Reading qualifier": "=", "self-cleavage kobs at 10000 uM GlcN6P [s⁻¹]": 0.000152}
{"Mutation descriptor": "A39C U55C", "Reading qualifier": "=", "self-cleavage kobs at 10000 uM GlcN6P [s⁻¹]": 0.0067}
{"Mutation descriptor": "A6G C11U A15U C50U", "Reading qualifier": "<", "self-cleavage kobs at 10000 uM GlcN6P [s⁻¹]": "1e-05"}
{"Mutation descriptor": "A39G A52G", "Reading qualifier": "=", "self-cleavage kobs at 10000 uM GlcN6P [s⁻¹]": 0.00205}
{"Mutation descriptor": "A6U C70G", "Reading qualifier": "=", "self-cleavage kobs at 10000 uM GlcN6P [s⁻¹]": "1.91e-05"}
{"Mutation descriptor": "A39G G40U C50U", "Reading qualifier": "<", "self-cleavage kobs at 10000 uM GlcN6P [s⁻¹]": "1e-05"}
{"Mutation descriptor": "A42C C50U C68A C70A", "Reading qualifier": "<", "self-cleavage kobs at 10000 uM GlcN6P [s⁻¹]": "1e-05"}
{"Mutation descriptor": "G38C A39C G43U U57G C71U", "Reading qualifier": "<", "self-cleavage kobs at 10000 uM GlcN6P [s⁻¹]": "1e-05"}
{"Mutation descriptor": "C8G A36U G37U A52U U54A", "Reading qualifier": "<", "self-cleavage kobs at 10000 uM GlcN6P [s⁻¹]": "1e-05"}
{"Mutation descriptor": "C8U G51U U69A", "Reading qualifier": "=", "self-cleavage kobs at 10000 uM GlcN6P [s⁻¹]": 0.000401}
{"Mutation descriptor": "G40U U54G", "Reading qualifier": "=", "self-cleavage kobs at 10000 uM GlcN6P [s⁻¹]": 0.00364}
{"Mutation descriptor": "U30A A33U", "Reading qualifier": "=", "self-cleavage kobs at 10000 uM GlcN6P [s⁻¹]": "4.04e-05"}
{"Mutation descriptor": "G40U A53C", "Reading qualifier": "=", "self-cleavage kobs at 10000 uM GlcN6P [s⁻¹]": 0.00149}
{"Mutation descriptor": "A42G U49C", "Reading qualifier": "<", "self-cleavage kobs at 10000 uM GlcN6P [s⁻¹]": "1e-05"}
{"Mutation descriptor": "C34U G38U", "Reading qualifier": "<", "self-cleavage kobs at 10000 uM GlcN6P [s⁻¹]": "1e-05"}
{"Mutation descriptor": "G7A U30A G60C", "Reading qualifier": "<", "self-cleavage kobs at 10000 uM GlcN6P [s⁻¹]": "1e-05"}
{"Mutation descriptor": "G43U C61G", "Reading qualifier": "<", "self-cleavage kobs at 10000 uM GlcN6P [s⁻¹]": "1e-05"}
{"Mutation descriptor": "G35U C50A", "Reading qualifier": "=", "self-cleavage kobs at 10000 uM GlcN6P [s⁻¹]": "6.59e-05"}
{"Mutation descriptor": "G13A U57C", "Reading qualifier": "=", "self-cleavage kobs at 10000 uM GlcN6P [s⁻¹]": "5.42e-05"}
